# system-name: Neu5Ac(a2-3)Gal(b1-4)GlcNAc(b1-3)Gal(b1-3)GlcNAc
# measurement-notes: glycan array binding signal (z-score within array); higher = stronger binding
# settings: glycan notation: IUPAC condensed, linker removed
Only a selection was taken, and the strongest signals are over-represented in it overall.
quantity-measured: glycan array binding signal (z-score)
// no unit string in output, number only

Request: State the recorded glycan array binding signal (z-score) for this entry: CD72 ectodomain (Homo sapiens), P21854 (protein) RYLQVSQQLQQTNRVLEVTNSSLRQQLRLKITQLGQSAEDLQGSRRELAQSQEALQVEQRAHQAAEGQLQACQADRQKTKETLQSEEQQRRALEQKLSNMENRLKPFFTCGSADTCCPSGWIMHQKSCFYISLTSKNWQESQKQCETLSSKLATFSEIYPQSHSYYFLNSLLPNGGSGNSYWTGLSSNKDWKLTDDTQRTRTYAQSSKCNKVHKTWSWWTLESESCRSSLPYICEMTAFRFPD
Response: 1.03
